FYI, the data here is from patent US12564600B2.

procedure.summary: Pharmacokinetics in wild-type mice with or without rifampin co-dose
Type: in vivo, wild-type FVB male mice
condition: male, FVB, mouse, liver and plasma, with rifampin 30 mg/kg co-dosed; wild type mice, IV; read-out: decrease of Kp (liver/plasma) in the presence of Rifampin
outcome.measure: fold decrease of liver/plasma Kp with rifampin
When you answer, write just the number.

Ask: Look up fold decrease of liver/plasma Kp with rifampin for this molecule: O=[P@]1(S)OC[C@H]2O[C@@H]3[C@H](F)[C@@H]2O[P@](=O)(S)OC[C@H]2O[C@H]([C@H](F)[C@@H]2O1)n1cnc2c(ncnc21)NC/C=C/CNc1ncnc2c1ncn23
Reply: 5

###

procedure.summary: Physicochemical properties and ECCS classification of Compound 1
condition: read-out: measured Log D
outcome.measure: logD
When you answer, write just the number.

Ask: Look up logD for this compound: O=[P@]1(S)OC[C@H]2O[C@@H]3[C@H](F)[C@@H]2O[P@](=O)(S)OC[C@H]2O[C@H]([C@H](F)[C@@H]2O1)n1cnc2c(ncnc21)NC/C=C/CNc1ncnc2c1ncn23 [Compound 1]
Reply: 1.31
